protocol details: folding stability dG unfold from chymotrypsin proteolysis; higher = more stable
folding stability dG unfold vs 2 kcal/mol: at or above is 1, below is 0.

Given SAGGWHTIQINVRRPGKPITPEKIKEALREAYPGYPIEVEDINPEDGRITITVPENAMPRIKEALMKSAGGS [r8_235_TrROS] , state whether its folding stability dG unfold is at least 2 kcal/mol. 0

Would you kindly repeat that for SAGGSAGGSAGGMEIREVEVTFVPPDGTTTTRKVLATSEEEAKAILEEELPPDWEIILRSAGGSAGGSAGGS [r10_145_JUSTAS] ? 0

Would you kindly repeat that for SAGGSAGGSAGMPEKVTLTFERSSEVFDPKLGKWRTLPSTEVVEFDSEEEAEELKEKLGLSAGGSAGGSAGG [r11_984_JUSTAS] ? 0

Would you kindly repeat that for SAGMKYTFKILVKADSPEEAIETAKKLVEKWLKENFPELPEGVKIKEIKVEPLPDDYYLVTITVEFDPESAG [r5_320_TrMRF] ? 1

Would you kindly repeat that for SAGGMLTLPATVEGDELTLTLPTGATKTVSPNTTVKLPDGTVVSLTPVSPSSVSATVTPLPADATRPSAGGS [r16_277_JUSTAS] ? 0

Would you kindly repeat that for SAGMTYTEKVFTSEVTLPEIGAKITITTTVKTPPSGETEPTVEVTFDLPETASEEVVKAVLEELNIPVESAG [r5_486_JUSTAS] ? 0

Would you kindly repeat that for SAPDPEQRKKNREQQEKNERMIPIQIHVYDKDGKWKPIGPVWFKDPDVPIDDLVPTFHDEGFDYVSISISAG [r14_318_TrROS] ? 0

Would you kindly repeat that for SAGGSAMEIEVEKNEDGTVTIRFRDKETGEEIEIEIEVEPGMTEEEVREKAEELAEELKKKGIEIESAGGSA [r15_1022_TrROS_Hall] ? 1

Would you kindly repeat that for SAGGSAGGKPDLLLEARTDLFGEEREAEVFYDPSPPVLTITLPDGTVITLPEEEVEIEKETPLISAGGSAGG [r6_185_JUSTAS] ? 0

Would you kindly repeat that for SAGGSAETIETVSSTFPVFSEDDKPVAVVKTYIFKFEDGELVLTEVFTPDGKPVAVKVASLDEFLNSAGGSA [r15_755_TrMRF] ? 0

Would you kindly repeat that for MPDISRAEIKALAEKLGLPVPDGTITIKFTYGDKTITVPVDAKKDITLGDIVEAIKKKNPNIKKIEIVAEPS [r1_135_TrMRF] ? 0

Would you kindly repeat that for SAGKIEITVKPDGTVIIKVTVEVDGKKLELTIEVPPEMTIEEIIEKLKELAEELGVEKVEVEIVPLPPSAGG [r19_31_TrROS_Hall] ? 1

Would you kindly repeat that for SAGGSAGGEDRLLLRVEVIVGGVPFEPVLEVDHPELRELLEEGRVLVVELPGGAVGRLYAEPLASAGGSAGG [r6_478_TrMRF] ? 0

Would you kindly repeat that for SAGGSAGGSAGGEPELVFKVRVRTKDGRELEIEVSAEDLEKLLEALPDIEEVEIEEVEPSAGGSAGGSAGGS [r10_437_TrROS_Hall] ? 1
